protocol_summary: clinical
reported_conditions: human, in vivo, po
Description: Evalaution of pharmacokinetic parameters of Acetaminophen following single oral co-administration of 325 mg Acetaminophen tablets with 37.5 mg Tramadol.
reported_metric: Tmax (min)
The answer is to be given in min; state only the numeric part.

Tmax reported for this molecule "CC(=O)Nc1ccc(O)cc1" : 54
